Where do these numbers come from? They come from the supplement of paper PMC3545927.

TESTED SYSTEM: furin, P09958;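 also: purified furin at 1:10 enzyme:substrate in 50 mM HEPES pH 7.5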
Sequence (P09958 whole entry): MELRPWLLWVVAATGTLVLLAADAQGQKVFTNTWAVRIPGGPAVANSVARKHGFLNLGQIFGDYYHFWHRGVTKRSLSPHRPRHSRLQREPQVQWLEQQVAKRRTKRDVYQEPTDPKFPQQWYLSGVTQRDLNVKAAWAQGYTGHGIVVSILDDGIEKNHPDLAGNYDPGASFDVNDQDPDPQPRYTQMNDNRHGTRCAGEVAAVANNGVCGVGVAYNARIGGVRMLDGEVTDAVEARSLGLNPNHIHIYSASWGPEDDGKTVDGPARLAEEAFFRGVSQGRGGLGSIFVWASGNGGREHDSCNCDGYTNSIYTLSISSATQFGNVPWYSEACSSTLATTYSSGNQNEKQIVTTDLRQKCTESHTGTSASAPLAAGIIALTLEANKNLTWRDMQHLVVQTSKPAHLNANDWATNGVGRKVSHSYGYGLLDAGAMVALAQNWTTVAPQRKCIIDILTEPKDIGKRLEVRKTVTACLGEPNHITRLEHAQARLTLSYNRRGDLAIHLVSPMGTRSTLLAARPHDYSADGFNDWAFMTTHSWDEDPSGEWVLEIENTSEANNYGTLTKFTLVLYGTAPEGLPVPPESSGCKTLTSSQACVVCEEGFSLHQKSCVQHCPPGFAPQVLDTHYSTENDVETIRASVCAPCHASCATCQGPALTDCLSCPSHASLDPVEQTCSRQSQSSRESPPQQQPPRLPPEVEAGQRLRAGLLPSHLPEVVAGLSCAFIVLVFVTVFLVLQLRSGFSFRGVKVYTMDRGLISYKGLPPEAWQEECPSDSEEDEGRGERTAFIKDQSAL
PROCEDURE SUMMARY: furin cleavage Z-score vs untreated control; higher = more cleavage, active = 3.5 or more, inactive = 1 or less, 8 variable residues between constant flanks
CONDITION SUMMARY: 7.5 min
The list shows a part of the results. The true hit rate is not given.
Please note: Condition met applies when furin cleavage Z-score is 7 or greater, and Condition not met applies otherwise.

- BIOSEQUENCE: "CARRGREILLAGNASASA [HC663]"
  QUALITATIVE LABEL: "Condition not met"
- BIOSEQUENCE: "CAPSLKATCTAGNASASA [HC1265]"
  QUALITATIVE LABEL: "Condition not met"
- BIOSEQUENCE: "CAMEECHQHLAGNASASA [HC29]"
  QUALITATIVE LABEL: "Condition not met"
- BIOSEQUENCE: "CARRRRGALRAGNASASA [FS-2787]"
  QUALITATIVE LABEL: "Condition not met"
- BIOSEQUENCE: "CARARREALRAGNASASA [FS-2326]"
  QUALITATIVE LABEL: "Condition met"
